Form field: Classification (one value per entry).
- assay_target: T1, GST-PTPL1 PDZ domain 2 (Homo sapiens (Human)), Q12923
- T1 chain: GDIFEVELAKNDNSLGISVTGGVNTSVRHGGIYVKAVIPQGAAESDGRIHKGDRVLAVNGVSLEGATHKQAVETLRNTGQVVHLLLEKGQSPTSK
- assay_details: G' assay; note: key of the grades not given here

Worked cases, answers included:
binder: SLKPGTVLPPPPYRHRNTVV (modifications not checked) [ErbB-4 receptor]
result: 2 A450 class
--
binder: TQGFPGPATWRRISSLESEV (modifications not checked) [NMDA Glutamate Receptor 2C (cysteine-free)]
result: 5 A450 class
--
binder: HPTDITGLPNLSDPSVSTVV (modifications not checked) [NMDA R2C]
result: 1 A450 class
--
binder: HDFRRAFKKILARGDRKRIV (modifications not checked) [alpha-2A Adrenergic receptor]
result: 2 A450 class
--
binder: IVTVVTMVTNVDFPPKESSL (modifications not checked) [ActRIIA]
result: 3 A450 class
--
binder: AWDDSARAAGGQGLHVTAL (modifications not checked) [LPAP]
result: 1 A450 class

Entry under review: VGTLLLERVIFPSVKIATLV (modifications not checked) [AdenoE4 typ9] . Reported Classification?
3 A450 class
